Biological target: Bcl-2 protein (Recombinant Human Bcl-2 Protein) (Homo sapiens)
Construct: purchased Novus Biologicals NBP2-34889
Experiment: AS-MS evaluation of binding of the Example 4 mixture library (1200 compounds/well) to Bcl-2, ASMS ratio (%)
Conditions: replicate n = 2; mixture library; value belongs to the MS peak assigned to the compound
Quantity Kind: ASMS ratio (%) n = 2
Please respond with the number in % and leave the unit unwritten.

Worked cases, answers included:
q: Could you please provide reported ASMS ratio (%) n = 2 for CCOc1cncc(-c2csc(CN3CCN(c4ccc(C(=O)NS(C)(=O)=O)cc4)CC3)c2)c1 [Compound B2I068-01] ? Thanks!
a: 0.0

q: Could you please provide reported ASMS ratio (%) n = 2 for CCOc1cccc(-c2cc(OC)c(CN3CCN(c4ccc(C(=O)NS(C)(=O)=O)cc4)CC3)c(OC)c2)c1 [Compound B2I059-01] ? Thanks!
a: 0.0

q: Could you please provide reported ASMS ratio (%) n = 2 for CCOc1cccc(-c2cc(CN3CCN(c4ccc(C(=O)NS(=O)(=O)C(C)(C)C)cc4)CC3)cc(OC(F)(F)F)c2)c1 [Compound B2L063-01] ? Thanks!
a: 0.0

q: Could you please provide reported ASMS ratio (%) n = 2 for CCOc1cncc(-c2cc(CN3CCN(c4ccc(C(=O)NS(C)(=O)=O)cc4)CC3)cc(OCC)c2)c1 [Compound B2I056-01] ? Thanks!
a: 0.0

q: Could you please provide reported ASMS ratio (%) n = 2 for CCOc1cccc(-c2cnn(-c3cc(C(=O)N4CCN(c5ccc(C(=O)NS(=O)(=O)C(C)(C)C)nn5)CC4)cc(C(F)(F)F)c3)c2)c1 [Compound B2L021-01] ? Thanks!
a: −14.9

Note: attention shifts to another entry.
q: Could you please provide reported ASMS ratio (%) n = 2 for CCOc1cncc(-c2ccc(CN3CCN(c4ccc(C(=O)NS(C)(=O)=O)nn4)CC3)c(CC)c2)c1 [Compound B2I076-01] ? Thanks!
a: −3.2

====

Biological target: Bcl-2 protein (Recombinant Human Bcl-2 Protein) (Homo sapiens, UniProt P10415)
Construct: purchased Novus Biologicals NBP2-34889
Sequence (P10415 whole entry): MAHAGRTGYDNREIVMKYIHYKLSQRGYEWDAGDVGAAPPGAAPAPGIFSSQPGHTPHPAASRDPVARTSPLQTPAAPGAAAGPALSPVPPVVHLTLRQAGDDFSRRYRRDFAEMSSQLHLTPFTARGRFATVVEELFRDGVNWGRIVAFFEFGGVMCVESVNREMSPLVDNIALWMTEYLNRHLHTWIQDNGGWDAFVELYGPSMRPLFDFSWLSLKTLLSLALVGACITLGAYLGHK
Assay: AS-MS evaluation of binding of the mixture libraries of Examples 8 and 9 to Bcl-2, ASMS ratio (%), Example 11
Conditions: ASMS ratio, replicate N2; mixtures obtained from Example 9, 10 uM Bcl-2 protein
// AS-MS(%) N2 lookup, one value per entry
Remember to follow the number with its unit.

q: Could you please provide reported AS-MS(%) N2 for CCOc1cc(C(C)C(=O)Nc2ccccc2)cc(N2CCN(c3ccc(C(=O)NS(=O)(=O)c4ccc(N[C@H](CCN5CCOCC5)CSc5ccccc5)c([N+](=O)[O-])c4)cc3)CC2)c1 (stereo partly shown) ? Thanks!
a: 48.8%

***
q: Could you please provide reported AS-MS(%) N2 for CCOc1cc(C(C)C(=O)Nc2ccc(F)cc2)cc(N2CCN(c3ccc(C(=O)NS(=O)(=O)c4ccc(N[C@H](CCN5CCOCC5)CSc5ccccc5)c([N+](=O)[O-])c4)cc3)CC2)c1 (stereo partly shown) ? Thanks!
a: 42.2%

q: Could you please provide reported AS-MS(%) N2 for CC(C(=O)Nc1ccccc1)c1cc(O)cc(N2CCN(c3ccc(C(=O)NS(=O)(=O)c4ccc(NCCSc5ccccc5)c([N+](=O)[O-])c4)cc3)CC2)c1 (stereo not shown) ? Thanks!
a: 33.3%

q: Could you please provide reported AS-MS(%) N2 for CCOc1cc(N2CCN(c3ccc(C(=O)NS(=O)(=O)c4ccc(N[C@H](CCN5CCOCC5)CSc5ccccc5)c([N+](=O)[O-])c4)cc3)CC2)cc2c1CCCC2C(=O)Nc1ccccc1 (stereo partly shown) ? Thanks!
a: 45.9%
